Assay: Solubility of the compound in amorphous form at pH 6.5
Assay type: physicochemical
Conditions: buffer
OBSERVATION_TYPE: solubility (µg/mL)

Here are 3 compounds together with their reported answers.
> print(dat)
                              smiles.record  reported.measurement
1  O=C(C(=O)N1CCN(C(=O)c2ccccc2)CC1)c1c[nH]c2c(-n3ccc(-c4cccc(C(F)(F)F)c4)n3)ncnc12                    60
2  COc1ccccc1-c1ccn(-c2ncnc3c(C(=O)C(=O)N4CCN(C(=O)c5ccccc5)CC4)c[nH]c23)n1                     4
3  CNCCCCNC(=O)c1ccn(-c2ncnc3c(C(=O)C(=O)N4CCN(C(=O)c5ccccc5)CC4)c[nH]c23)n1                  1730

[a] Cc1ccn(-c2ncnc3c(C(=O)C(=O)N4CCN(C(=O)c5ccccc5)CC4)c[nH]c23)n1
[b] COc1ccc(-c2ccn(-c3ncnc4c(C(=O)C(=O)N5CCN(C(=O)c6ccccc6)CC5)c[nH]c34)n2)cc1
Inquiry: From the items above, decide which of a and b has the lower solubility reading. Refer to your chosen item by its label in the answer.
Reply text: b
(b: 1 µg/mL, a: 8 µg/mL)

[1] O=C(C(=O)N1CCN(C(=O)c2ccccc2)CC1)c1c[nH]c2c(-n3ccc(-c4ccccc4)n3)ncnc12
[2] O=C(O)c1ccn(-c2ncnc3c(C(=O)C(=O)N4CCN(C(=O)c5ccccc5)CC4)c[nH]c23)n1
Inquiry: Select one: 1 or 2 . Criterion: greater recorded solubility. Indicate which entry you chose by stating its label.
Reply text: 2
(2: 1070 µg/mL, 1: 1 µg/mL)
